Attribution: patent USRE47150

# TESTED TARGET: T1, human tissue factor pathway inhibitor (TFPI) (human, UniProt P10646 29-304, limits assumed)
# T1 construct: bought; also called hTFPI; human TFPI
# T1 sequence (looked up): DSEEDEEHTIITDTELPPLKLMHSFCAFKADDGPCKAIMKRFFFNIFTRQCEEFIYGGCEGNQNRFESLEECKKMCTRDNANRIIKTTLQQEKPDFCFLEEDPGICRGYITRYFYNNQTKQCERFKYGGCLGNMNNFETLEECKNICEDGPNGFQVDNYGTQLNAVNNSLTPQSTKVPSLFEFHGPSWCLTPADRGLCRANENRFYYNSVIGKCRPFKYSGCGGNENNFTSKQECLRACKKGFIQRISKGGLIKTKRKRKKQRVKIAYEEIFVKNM
# TEST SUMMARY: SPR, TFPI immobilized
Reported values of Improvement for individual entries
Please respond with the number in fold and leave the unit unwritten.

Illustrative cases are given below, each with its answer.
{"columns": ["BINDER", "Improvement, fold"],
 "data": [
  ["2A8 HC_S31V (Fab, V domains shown, also called 2A8-3) VH: QVQLVESGGGLVQPGGSLRLSCAASGFTFRVYGMSWVRQAPGKGLEWVSSIRGSSSSTYYADSVKGRFTISRDNSKNTLYLQMNSLRAEDTAVYYCARKYRYWFDYWGQGTLVTVSS VL: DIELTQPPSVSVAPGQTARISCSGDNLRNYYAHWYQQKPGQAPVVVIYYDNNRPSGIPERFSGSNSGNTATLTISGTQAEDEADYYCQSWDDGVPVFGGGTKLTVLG", 6],
  ["2A8 LC_A32N (Fab, V domains shown, also called 2A8-11) VH: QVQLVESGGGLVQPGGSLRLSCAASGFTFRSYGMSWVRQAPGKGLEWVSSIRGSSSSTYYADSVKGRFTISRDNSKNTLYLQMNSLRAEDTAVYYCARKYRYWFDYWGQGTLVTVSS VL: DIELTQPPSVSVAPGQTARISCSGDNLRNYYNHWYQQKPGQAPVVVIYYDNNRPSGIPERFSGSNSGNTATLTISGTQAEDEADYYCQSWDDGVPVFGGGTKLTVLG", 1.47],
  ["2A8 HC_S55R (Fab, V domains shown, also called 2A8-8) VH: QVQLVESGGGLVQPGGSLRLSCAASGFTFRSYGMSWVRQAPGKGLEWVSSIRGSRSSTYYADSVKGRFTISRDNSKNTLYLQMNSLRAEDTAVYYCARKYRYWFDYWGQGTLVTVSS VL: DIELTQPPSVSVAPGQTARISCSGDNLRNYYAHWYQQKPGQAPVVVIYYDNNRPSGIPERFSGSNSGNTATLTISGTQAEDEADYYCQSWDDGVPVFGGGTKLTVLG", 2.44],
  ["2A8 LC_D91K (Fab, V domains shown, also called 2A8-15) VH: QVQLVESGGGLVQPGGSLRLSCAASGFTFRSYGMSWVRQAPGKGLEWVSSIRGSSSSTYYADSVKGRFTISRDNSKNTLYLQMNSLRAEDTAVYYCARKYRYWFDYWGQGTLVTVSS VL: DIELTQPPSVSVAPGQTARISCSGDNLRNYYAHWYQQKPGQAPVVVIYYDNNRPSGIPERFSGSNSGNTATLTISGTQAEDEADYYCQSWKDGVPVFGGGTKLTVLG", 4.64],
  ["2A8 LC_Y48F (Fab, V domains shown, also called 2A8-14) VH: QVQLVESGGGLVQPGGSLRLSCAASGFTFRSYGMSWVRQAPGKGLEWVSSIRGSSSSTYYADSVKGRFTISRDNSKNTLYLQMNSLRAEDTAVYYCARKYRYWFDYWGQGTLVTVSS VL: DIELTQPPSVSVAPGQTARISCSGDNLRNYYAHWYQQKPGQAPVVVIFYDNNRPSGIPERFSGSNSGNTATLTISGTQAEDEADYYCQSWDDGVPVFGGGTKLTVLG", 1.97],
  ["2A8 HC_S31P (Fab, V domains shown, also called 2A8-2) VH: QVQLVESGGGLVQPGGSLRLSCAASGFTFRPYGMSWVRQAPGKGLEWVSSIRGSSSSTYYADSVKGRFTISRDNSKNTLYLQMNSLRAEDTAVYYCARKYRYWFDYWGQGTLVTVSS VL: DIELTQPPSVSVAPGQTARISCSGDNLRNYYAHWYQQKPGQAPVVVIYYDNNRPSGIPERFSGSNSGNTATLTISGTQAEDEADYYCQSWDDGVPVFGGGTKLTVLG", 1.95]
]}

Improvement lookup needed for 2A8 HC_I51D (Fab, V domains shown, also called 2A8-12) VH: QVQLVESGGGLVQPGGSLRLSCAASGFTFRSYGMSWVRQAPGKGLEWVSSDRGSSSSTYYADSVKGRFTISRDNSKNTLYLQMNSLRAEDTAVYYCARKYRYWFDYWGQGTLVTVSS VL: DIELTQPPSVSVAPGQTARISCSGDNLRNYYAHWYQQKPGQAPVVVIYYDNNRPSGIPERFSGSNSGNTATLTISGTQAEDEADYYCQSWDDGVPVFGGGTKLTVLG , thanks. 1.63
